MEASURED ON: Mitogen-activated protein kinase 14 (Homo sapiens, UniProt Q16539)
Sequence (Q16539 whole entry): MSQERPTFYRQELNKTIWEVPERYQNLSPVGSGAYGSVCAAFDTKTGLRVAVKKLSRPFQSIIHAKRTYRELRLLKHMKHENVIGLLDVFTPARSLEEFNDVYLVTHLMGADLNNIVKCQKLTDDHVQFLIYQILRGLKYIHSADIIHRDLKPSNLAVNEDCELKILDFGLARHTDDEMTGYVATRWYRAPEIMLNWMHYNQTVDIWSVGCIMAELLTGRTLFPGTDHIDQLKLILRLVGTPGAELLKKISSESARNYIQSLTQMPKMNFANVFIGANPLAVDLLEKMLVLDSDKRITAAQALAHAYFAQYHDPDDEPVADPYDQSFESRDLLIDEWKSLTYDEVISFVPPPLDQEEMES
PROTOCOL DETAILS: Inhibition of p38alpha MAP kinase in human whole blood assessed as inhibition of LPS-induced TNFalpha release by ELISA
Please respond with reported pIC50 for every item in the list.
Reminder that pIC50 means the negative base-10 logarithm of the concentration expressed in mol/L.

Prompt: Fill in: pIC50 of `CC1(C)OC[C@H](COc2ccc3c(c2)C(=O)c2ccc(Nc4ccc(F)cc4F)cc2OC3)O1` is ___
Response: 5.89

Prompt: Fill in: pIC50 of `Nc1ccc2c(c1)C(=O)c1ccc(Nc3ccc(F)cc3F)cc1OC2` is ___
Response: 5.71

Prompt: Fill in: pIC50 of `O=C1c2cc(NCCN3CCOCC3)ccc2COc2cc(Nc3ccc(F)cc3F)ccc21` is ___
Response: 5.96

Prompt: Fill in: pIC50 of `O=C1c2ccc(Nc3ccc(F)cc3F)cc2CCc2ccc(O)cc21` is ___
Response: 5.90

Prompt: Fill in: pIC50 of `O=C1c2cc(O)ccc2COc2cc(Nc3ccc(F)cc3F)ccc21` is ___
Response: 5.73
